Measured selectivity ratio at 18 h by item
# Procedure Summary: Selectivity ratio of MHC10 for BALB/C mouse erythrocytes to MIC for gram positive bacteria
# Type: toxicity
Where a SMILES comes first, the peptide text is derived from it.
Parameter Measured: selectivity ratio at 18 h

>>> endpoint_value("N=C(N)NCCC[C@H](NC(=O)[C@H](CCCCN)NC(=O)[C@H](Cc1c[nH]c2ccccc12)NC(=O)[C@H](Cc1c[nH]c2ccccc12)NC(=O)[C@@H](N)CCCCN)C(=O)N[C@@H](Cc1c[nH]c2ccccc12)C(=O)N[C@@H](CCCCN)C(=O)N[C@@H](CCCCN)C(=O)N[C@@H](Cc1c[nH]c2ccccc12)C(=O)N[C@@H](Cc1c[nH]c2ccccc12)C(N)=O (H-KWWKRWKKWW-NH2)")
9.71
>>> endpoint_value("C[C@@H](O)[C@H](NC(=O)[C@H](CCCCN)NC(=O)[C@H](Cc1c[nH]c2ccccc12)NC(=O)[C@H](CCCNC(=N)N)NC(=O)[C@H](CCCCN)NC(=O)[C@H](Cc1c[nH]c2ccccc12)NC(=O)[C@H](Cc1c[nH]c2ccccc12)NC(=O)CN)C(=O)N[C@@H](Cc1c[nH]c2ccccc12)C(=O)N[C@@H](Cc1c[nH]c2ccccc12)C(N)=O (H-GWWKRWKTWW-NH2)")
6.09
>>> endpoint_value("CC(C)C[C@H](NC(=O)[C@H](C)NC(=O)[C@@H](NC(=O)[C@H](CCCCN)NC(=O)[C@H](C)NC(=O)[C@H](CCCNC(=N)N)NC(=O)[C@H](CCCCN)NC(=O)[C@H](C)NC(=O)[C@H](C)NC(=O)CN)[C@@H](C)O)C(N)=O (H-GAAKRAKTAL-NH2)")
1
